Tested on: NanoLuc luciferase (engineered Oplophorus gracilirostris luciferase)
TEST NAME: Biochemical coelenterazine-based NLuc counterscreen for small molecule modulators of PMP22 gene expression - Km assay (AID 1508639);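 also: substrate at 15 µM coelenterazine with 5 min compound preincubation before enzyme addition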
RUN CONDITIONS: secreted NLuc enzyme, coelenterazine luminescence, Km conditions; series mostly up to 57.5 µM
The other results are listed elsewhere or left out. Inconclusive results are not listed. Activity calls are given as the source filed them. Calls follow the shape of the dose curve; as a rule, active = well fitted inhibition curve with a large enough effect; inconclusive = small, poorly fitted or top-dose-only effect; inactive = flat fitted curve, though single readings scatter.
Pick one: active, inactive

Ask: What did this assay record as the result for O=C(NCCCN1CCN(c2cccc(Cl)c2)CC1)c1nnc(Cc2ccc(F)cc2Cl)o1 ?
Result: inactive

###

Tested on: CP262
TEST NAME: qHTS profiling for inhibitors of Plasmodium falciparum proliferation (AID 504749); also: nearly all actives have a fitted effect of over 60% in size
RUN CONDITIONS: P. falciparum in erythrocytes, SYBR Green DNA, 72 h; series mostly up to 12.8 µM
Records with an inconclusive call do not appear. The source made the active and inactive calls. Calls come from the whole dose curve; as a rule, active = well fitted inhibition curve with a large enough effect; inconclusive = small, poorly fitted or top-dose-only effect; inactive = flat fitted curve, though single readings scatter.
Pick one: true (active), false (inactive)

Below, 2 molecules whose answers are already recorded.
{"SMILES STR": "CC1(C)S[C@@H]2[C@H](NC(=O)[C@H](C(=O)O)c3ccsc3)C(=O)N2[C@H]1C(=O)O", "CATEGORY LABEL": "false"}
{"SMILES STR": "C[n+]1ccccc1/C=N\\O", "CATEGORY LABEL": "false"}

Ask: What did this assay record as the result for CC[C@@]12CCCN3CCc4c(n(c5ccccc45)C(=O)C1)[C@H]32 ?
Result: false

Ask: What did this assay record as the result for CC(C)(O/N=C(\C(=O)N[C@@H]1C(=O)N2C(C(=O)[O-])=C(C[n+]3ccccc3)CS[C@@H]12)c1csc(N)n1)C(=O)O ?
Result: false

Ask: What did this assay record as the result for CCN(CC)CCC[C@H](C)Nc1c2ccc(Cl)cc2nc2ccc(OC)cc12 ?
Result: true
